Target: N-type calcium channel (Homo sapiens)
Construct: host or cells: IMR-32 human neuroblastoma cells, differentiated with dibutyl cAMP and 5-bromodeoxyuridine
Assay: Antagonistic activity on N-type calcium channel (fluorescence dye method, KCl-stimulated intracellular calcium change in IMR-32 cells with 1 μM Nifedipine)
Format: cell-based
Conditions: 10 μM test compound, 60 mM KCl stimulation, read-out: Antagonistic activity on N-type calcium channels at 10 μM inhibition rate (%)
measurementName: inhibition at 10 µM (%)
Your answer should be a plain number; it is taken to be in %.

Examples with their reported inhibition at 10 µM follow.
- structureNotation: "CC(C)(C)C(=O)N[C@@H](CO)CCC(=O)N1CCC(=C2c3ccccc3C=Cc3ccccc32)CC1"
  inhibition at 10 µM (%): 81
- structureNotation: "CC(C)(C)C(=O)N[C@H](CO)CCC(=O)N1CCC(=C2c3ccccc3C=Cc3ccccc32)CC1"
  inhibition at 10 µM (%): 74
- structureNotation: "CC(C)(C)OC(=O)NCC(=O)N1CCC(=C2c3ccccc3C=Cc3ccccc32)CC1"
  inhibition at 10 µM (%): 67

Query: inhibition at 10 µM; subject: CC(C)(C)OC(=O)NCC(=O)N1CCC(=C2c3ccccc3CCc3ccccc32)CC1 75

====

Biological target: N-type calcium channel (Homo sapiens)
Construct: host or cells: IMR-32 human neuroblastoma cells, differentiated with dibutyl cAMP and 5-bromodeoxyuridine
Assay: Antagonistic activity on N-type calcium channel (fluorescence dye method, KCl-stimulated intracellular calcium change in IMR-32 cells with 1 μM Nifedipine)
Assay type: cell-based
Conditions: 10 μM test compound, 60 mM KCl stimulation, read-out: Antagonistic activity on N-type calcium channels at 10 μM inhibition rate (%)
Each entry gets false if its inhibition at 10 µM stays under 80%, and true if its inhibition at 10 µM is 80% or above.

Here's what some known entries look like.
- structureNotation: "CC(C)(C)OC(=O)NCCCNC(=O)C=C1c2ccccc2C=Cc2ccccc21"
  assignedClass: "false"
- structureNotation: "CC(C)(C)NC(=O)CCC(=O)N1CCC(=C2c3ccccc3C=Cc3ccccc32)CC1"
  assignedClass: "true"
- structureNotation: "CC(C)(C)C(=O)N[C@H](CO)CCC(=O)N1CCC(=C2c3ccccc3CCc3ccccc32)CC1"
  assignedClass: "true"
- structureNotation: "CCOC(=O)N[C@@H](CO)CC(=O)N1CCC(=C2c3ccccc3C=Cc3ccccc32)CC1"
  assignedClass: "false"
- structureNotation: "CC(C)(C)C(=O)NCCC(=O)N1CCC(=C2c3ccccc3C=Cc3ccccc32)CC1"
  assignedClass: "false"

Turning now to a further record.
Is inhibition at 10 µM at least 80%? Consider CC(C)(C)OC(=O)N[C@@H](CO)CC(=O)N1CCC(=C2c3ccccc3Sc3ccccc32)CC1 true

====

Biological target: L-type calcium channel (Rattus norvegicus)
Construct: relaxation response against the KCl-induced contraction of isolated rat thoracic aorta was employed; from tissue; host or cells: endothelium-denuded thoracic aorta rings of Wistar rat
Assay: Antagonistic activity on L-type calcium channel (relaxation response against KCl-induced contraction of isolated rat thoracic aorta)
Settings: read-out: Antagonistic action on L-type calcium channels pIC50 (converted)
# key: entry, value: IC50
Give the value, in units of nM, as a plain number.

Examples with their reported IC50 follow.
- compound: "CC(C)(C)C(=O)N[C@H](CO)CCC(=O)N1CCC(=C2c3ccccc3CCc3ccccc32)CC1 [Example 78]"
  valueUnits: "nM"
  IC50: 2510
- compound: "CC(C)(C)OC(=O)N[C@@H](CO)CC(=O)N1CCC(=C2c3ccccc3Sc3ccccc32)CC1 [Example 76]"
  valueUnits: "nM"
  IC50: 794
- compound: "CC(C)(C)OC(=O)NCC(=O)N1CCC(=C2c3ccccc3CCc3ccccc32)CC1 [Example 16]"
  valueUnits: "nM"
  IC50: 1260
- compound: "CC(C)(C)C(=O)N[C@H](CO)CCC(=O)N1CCC(=C2c3ccccc3C=Cc3ccccc32)CC1 [Example 71]"
  valueUnits: "nM"
  IC50: 1260
- compound: "CC(C)(C)OC(=O)NCC(=O)N1CCC(=C2c3ccccc3CSc3ccccc32)CC1 [Example 24]"
  valueUnits: "nM"
  IC50: 1000
- compound: "CC(C)(C)C(=O)NCCC(=O)N1CCC(=C2c3ccccc3C=Cc3ccccc32)CC1 [Example 11]"
  valueUnits: "nM"
  IC50: 398
- compound: "CC(C)(C)NC(=O)CCC(=O)N1CCC(=C2c3ccccc3C=Cc3ccccc32)CC1 [Example 9]"
  valueUnits: "nM"
  IC50: 501

Attention now shifts to the item below.
Look up IC50: CC(C)(C)OC(=O)NCC(=O)N1CCC(=C2c3ccccc3C=Cc3ccccc32)CC1 [Example 1] 1000

====

Some compounds, each annotated with its measured IC50.
Target: L-type calcium channel (Rattus norvegicus, UniProt P22002)
Construct: relaxation response against the KCl-induced contraction of isolated rat thoracic aorta was employed; from tissue; host or cells: endothelium-denuded thoracic aorta rings of Wistar rat
Sequence (P22002 whole entry): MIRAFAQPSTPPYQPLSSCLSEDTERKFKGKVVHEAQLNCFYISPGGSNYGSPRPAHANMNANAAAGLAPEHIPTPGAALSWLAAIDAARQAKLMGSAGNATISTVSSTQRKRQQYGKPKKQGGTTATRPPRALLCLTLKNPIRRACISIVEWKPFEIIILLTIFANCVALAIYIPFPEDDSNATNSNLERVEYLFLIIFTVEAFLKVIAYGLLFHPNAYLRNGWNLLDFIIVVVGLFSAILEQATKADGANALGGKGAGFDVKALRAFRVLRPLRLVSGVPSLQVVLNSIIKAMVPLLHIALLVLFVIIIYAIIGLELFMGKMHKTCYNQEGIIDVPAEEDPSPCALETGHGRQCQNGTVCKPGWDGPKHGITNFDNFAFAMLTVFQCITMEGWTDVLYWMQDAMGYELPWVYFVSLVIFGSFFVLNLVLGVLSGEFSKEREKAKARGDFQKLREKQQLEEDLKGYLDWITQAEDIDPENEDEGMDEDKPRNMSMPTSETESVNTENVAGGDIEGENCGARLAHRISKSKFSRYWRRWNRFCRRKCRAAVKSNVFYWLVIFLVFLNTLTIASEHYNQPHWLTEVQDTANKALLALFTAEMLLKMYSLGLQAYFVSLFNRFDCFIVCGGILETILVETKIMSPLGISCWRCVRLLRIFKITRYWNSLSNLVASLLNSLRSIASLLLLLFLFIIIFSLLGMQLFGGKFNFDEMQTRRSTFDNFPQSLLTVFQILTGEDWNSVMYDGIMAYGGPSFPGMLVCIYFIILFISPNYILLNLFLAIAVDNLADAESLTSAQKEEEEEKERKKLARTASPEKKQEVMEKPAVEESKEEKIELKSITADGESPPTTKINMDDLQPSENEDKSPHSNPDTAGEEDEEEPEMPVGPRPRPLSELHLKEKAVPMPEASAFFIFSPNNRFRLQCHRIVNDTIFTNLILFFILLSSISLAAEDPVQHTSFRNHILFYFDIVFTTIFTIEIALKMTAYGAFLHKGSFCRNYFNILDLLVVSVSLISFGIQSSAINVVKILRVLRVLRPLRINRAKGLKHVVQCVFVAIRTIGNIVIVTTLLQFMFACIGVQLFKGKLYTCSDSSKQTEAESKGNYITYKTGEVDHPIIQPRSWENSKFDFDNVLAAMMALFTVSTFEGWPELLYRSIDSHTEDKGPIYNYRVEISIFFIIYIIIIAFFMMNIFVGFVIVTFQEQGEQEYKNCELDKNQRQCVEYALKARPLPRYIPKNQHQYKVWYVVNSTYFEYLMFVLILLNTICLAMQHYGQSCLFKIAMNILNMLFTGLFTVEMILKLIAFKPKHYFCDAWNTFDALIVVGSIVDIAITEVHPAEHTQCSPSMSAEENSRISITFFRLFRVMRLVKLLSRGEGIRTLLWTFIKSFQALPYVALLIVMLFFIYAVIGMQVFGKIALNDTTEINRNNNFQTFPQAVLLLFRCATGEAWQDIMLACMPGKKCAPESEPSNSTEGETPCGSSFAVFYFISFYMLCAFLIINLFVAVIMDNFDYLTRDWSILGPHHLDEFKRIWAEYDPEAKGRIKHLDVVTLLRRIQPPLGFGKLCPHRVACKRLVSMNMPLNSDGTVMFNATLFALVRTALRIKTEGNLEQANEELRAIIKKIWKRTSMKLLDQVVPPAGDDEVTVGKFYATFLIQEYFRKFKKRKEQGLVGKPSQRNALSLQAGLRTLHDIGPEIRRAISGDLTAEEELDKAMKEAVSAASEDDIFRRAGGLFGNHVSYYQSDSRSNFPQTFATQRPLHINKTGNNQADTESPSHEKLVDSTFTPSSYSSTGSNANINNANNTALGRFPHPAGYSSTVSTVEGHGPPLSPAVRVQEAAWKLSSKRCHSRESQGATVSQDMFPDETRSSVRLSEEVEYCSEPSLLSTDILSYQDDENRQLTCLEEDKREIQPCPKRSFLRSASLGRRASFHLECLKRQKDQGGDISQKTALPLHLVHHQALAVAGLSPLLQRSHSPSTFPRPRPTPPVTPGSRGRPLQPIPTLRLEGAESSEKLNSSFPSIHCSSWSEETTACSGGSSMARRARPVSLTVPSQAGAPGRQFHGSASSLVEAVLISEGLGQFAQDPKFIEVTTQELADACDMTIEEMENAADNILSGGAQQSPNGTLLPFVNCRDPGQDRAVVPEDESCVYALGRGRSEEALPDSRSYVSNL
Sequence (P54287 whole entry partner): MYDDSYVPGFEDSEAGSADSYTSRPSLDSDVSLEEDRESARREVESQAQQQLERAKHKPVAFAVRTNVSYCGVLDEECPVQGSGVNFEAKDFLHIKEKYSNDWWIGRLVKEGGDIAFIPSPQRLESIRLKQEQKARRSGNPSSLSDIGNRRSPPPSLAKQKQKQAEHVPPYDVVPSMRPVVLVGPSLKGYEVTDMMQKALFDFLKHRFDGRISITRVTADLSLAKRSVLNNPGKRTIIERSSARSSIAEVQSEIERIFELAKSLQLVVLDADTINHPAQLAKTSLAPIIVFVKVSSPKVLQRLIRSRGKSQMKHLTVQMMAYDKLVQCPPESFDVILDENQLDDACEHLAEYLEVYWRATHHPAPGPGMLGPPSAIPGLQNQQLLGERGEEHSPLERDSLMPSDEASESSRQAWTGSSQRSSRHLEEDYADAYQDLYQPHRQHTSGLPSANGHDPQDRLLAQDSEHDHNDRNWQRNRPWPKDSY
Sequence (P54290 25-944 partner limits assumed): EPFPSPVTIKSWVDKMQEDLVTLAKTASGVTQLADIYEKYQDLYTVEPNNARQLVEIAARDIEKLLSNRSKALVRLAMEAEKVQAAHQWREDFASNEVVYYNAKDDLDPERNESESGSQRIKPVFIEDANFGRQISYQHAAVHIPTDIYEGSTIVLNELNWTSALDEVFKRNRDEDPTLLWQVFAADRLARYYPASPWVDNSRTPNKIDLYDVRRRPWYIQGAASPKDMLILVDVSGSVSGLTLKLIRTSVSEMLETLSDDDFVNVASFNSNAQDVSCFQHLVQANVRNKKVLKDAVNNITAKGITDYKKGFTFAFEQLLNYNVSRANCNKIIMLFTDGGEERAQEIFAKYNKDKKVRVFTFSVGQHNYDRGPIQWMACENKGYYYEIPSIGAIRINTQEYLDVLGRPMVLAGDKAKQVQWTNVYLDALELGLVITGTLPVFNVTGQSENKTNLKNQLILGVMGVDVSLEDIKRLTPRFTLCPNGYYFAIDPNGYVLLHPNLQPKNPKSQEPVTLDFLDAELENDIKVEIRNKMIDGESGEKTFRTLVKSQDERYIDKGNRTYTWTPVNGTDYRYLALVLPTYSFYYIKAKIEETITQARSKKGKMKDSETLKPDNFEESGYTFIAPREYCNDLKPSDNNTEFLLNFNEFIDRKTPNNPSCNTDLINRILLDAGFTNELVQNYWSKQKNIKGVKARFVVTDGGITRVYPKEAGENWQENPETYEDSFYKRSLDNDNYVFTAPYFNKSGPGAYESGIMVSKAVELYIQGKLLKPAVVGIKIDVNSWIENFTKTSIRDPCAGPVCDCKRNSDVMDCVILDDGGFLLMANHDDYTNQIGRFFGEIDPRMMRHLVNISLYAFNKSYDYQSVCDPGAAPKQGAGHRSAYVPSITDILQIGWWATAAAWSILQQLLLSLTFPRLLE
Sequence (P54290 945-1091 partner limits assumed): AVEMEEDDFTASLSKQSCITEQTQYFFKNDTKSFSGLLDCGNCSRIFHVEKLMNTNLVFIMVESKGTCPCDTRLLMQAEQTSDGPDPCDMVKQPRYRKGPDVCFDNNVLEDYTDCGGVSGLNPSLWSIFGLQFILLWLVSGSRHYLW
Assay: Antagonistic activity on L-type calcium channel (relaxation response against KCl-induced contraction of isolated rat thoracic aorta)
Conditions: read-out: Antagonistic action on L-type calcium channels pIC50 (converted)
# unit: µM | format: bare number

Consider the following illustrative entries.
- compound: "CC(C)(C)C(=O)N[C@@H](CO)CCC(=O)N1CCC(=C2c3ccccc3C=Cc3ccccc32)CC1 [Example 72]"
  valueUnits: "µM"
  IC50: 0.794
- compound: "CCOC(=O)N[C@@H](CO)CC(=O)N1CCC(=C2c3ccccc3C=Cc3ccccc32)CC1 [Example 73]"
  valueUnits: "µM"
  IC50: 2
- compound: "CC(C)(C)OC(=O)NCCCNC(=O)C=C1c2ccccc2C=Cc2ccccc21 [Example 41]"
  valueUnits: "µM"
  IC50: 1.26

Attention now turns to another entry.
Param readout = IC50; param system = L-type calcium channel (Rattus norvegicus, UniProt P22002); param query = CC(C)(C)OC(=O)N[C@@H](CO)CC(=O)N1CCC(=C2c3ccccc3C=Cc3ccccc32)CC1 [Example 68] ; response: value 0.398

Every entry's value here was drawn from patent US7462630B2.
